Molecular target: ERα (Homo sapiens, UniProt P03372)
Construct: host or cells: MCF7
Sequence (P03372 whole entry): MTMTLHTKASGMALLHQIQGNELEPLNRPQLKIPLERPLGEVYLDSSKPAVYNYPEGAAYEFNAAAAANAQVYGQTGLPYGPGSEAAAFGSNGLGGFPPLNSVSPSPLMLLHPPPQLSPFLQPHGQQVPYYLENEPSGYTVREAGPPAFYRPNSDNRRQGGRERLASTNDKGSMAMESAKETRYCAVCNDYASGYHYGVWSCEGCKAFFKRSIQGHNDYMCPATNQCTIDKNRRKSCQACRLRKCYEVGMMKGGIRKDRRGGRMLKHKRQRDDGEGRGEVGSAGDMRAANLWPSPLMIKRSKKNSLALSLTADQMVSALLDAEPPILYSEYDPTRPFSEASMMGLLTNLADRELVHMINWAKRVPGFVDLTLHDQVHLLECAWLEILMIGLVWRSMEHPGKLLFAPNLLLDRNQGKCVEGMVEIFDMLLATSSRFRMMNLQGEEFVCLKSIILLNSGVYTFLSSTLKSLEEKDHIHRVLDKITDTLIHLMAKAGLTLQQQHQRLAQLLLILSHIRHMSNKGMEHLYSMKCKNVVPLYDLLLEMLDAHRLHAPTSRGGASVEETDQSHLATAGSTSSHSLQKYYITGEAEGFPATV
Test: Estrogen receptor degradation activity: breast cancer cell ERα in cell western assay (MCF7 cells)
Format: cell-based
Conditions: 4 hours post compound addition, concentration which degrades 50% of the estrogen receptor, read-out: Degradation IC50
Description: Test: Estrogen Receptor Degradation Activity Said test involves measuring the in vitro degradation activity of the compounds of the Table 1a. The measurements of the degradation activities were made using a breast cancer cell ERα in cell western assay as described hereunder. […] Integrated intensities in the green fluorescence and red fluorescence were measured to determine the levels of ERα and DNA respectively. […]
observed-property: DC50 (nM)
Could you give me the number in nM? Just the number is fine.

>>> recorded_result("O=C(O)c1ccc2c(c1)CCCC(c1ccc(C(F)(F)F)cc1Cl)=C2c1ccc(C=C2CN(CCCF)C2)cc1 [Example 50]")
0.1
>>> recorded_result("O=C(O)c1ccc2c(c1)CCCC(c1cccc(C(F)(F)F)c1Cl)=C2c1ccc(C=C2CN(CCCF)C2)cc1 [Example 147]")
0.3
>>> recorded_result("O=C(O)c1ccc2c(c1)CCCC([C@H]1C[C@@H]1c1ccccc1)=C2c1ccc(C=C2CN(CCCF)C2)cc1 (racemic) [Example 173]")
0.7
>>> recorded_result("O=C(O)c1ccc2c(c1)CCCC(CC1CCC1)=C2c1ccc(C=C2CN(CCCF)C2)cc1 [Example 169]")
0.3

Which measured DC50 value corresponds to O=C(O)c1ccc2c(c1)CCCC(c1ccc(F)cc1C(F)(F)F)=C2c1ccc(C=C2CN(CCC(F)(F)F)C2)cc1 [Example 108] ?
1.2

Same for Cc1cccc(C2=C(c3ccc(C=C4CN(CCCF)C4)cc3)c3ccc(C(=O)O)cc3CCC2)c1F [Example 48]
0.3

Same for Cc1c(C2=C(c3ccc(C=C4CN(CCC(F)(F)F)C4)cc3)c3ccc(C(=O)O)cc3CCC2)ccc(F)c1F [Example 112]
27.8

Same for O=C(O)c1ccc2c(c1)CCCC(c1cccc(Cl)c1)=C2c1ccc(C=C2CN(CCCF)C2)cc1 [Example 180]
0.5

Same for Cc1c(C2=C(c3ccc(C=C4CN(CCCF)C4)cc3)c3ccc(C(=O)O)cc3CCC2)cccc1C(F)(F)F [Example 14]
0.2

Same for Cc1cc(F)ccc1C1=C(c2ccc(C=C3CN(CCCF)C3)c(C(F)(F)F)c2)c2ccc(C(=O)O)cc2CCC1 [Example 157]
3.1

Same for O=C(O)c1ccc2c(c1)CCCC(c1cc(F)cc(C(F)(F)F)c1Cl)=C2c1ccc(C=C2CN(CCCF)C2)cc1 [Example 123]
0.7

Same for Cc1cc(Cl)ccc1C1=C(c2ccc(C=C3CN(CCCF)C3)cc2)c2ccc(C(=O)O)cc2CCC1 [Example 89]
0.2

Same for Cc1cc(F)ccc1C1=C(c2c(F)cc(C=C3CN(CCCF)C3)cc2F)c2ccc(C(=O)O)cc2CCC1 [Example 68]
0.3

These data points were gathered from patent US12612360B2.
